Target: High affinity choline transporter 1 (Homo sapiens)
Assay: human choline transporter blockers, potency – cell-based, 5-point CRC, membrane potential dye, dose response (AID 504840)
Settings: HEK293-CHT, choline-induced depolarization, CHT with LV-to-AA double alanine mutation; series mostly up to 37 µM
In all, about 1,500 compounds went through this assay and about 890 (59%) were called active. So high a share suggests a set chosen from earlier hits. A selection follows. Results with a measured potency or affinity are listed apart.
reported_property: outcome

1) Oc1cccc(-n2nnnc2SCc2ccccc2F)c1: inactive
2) COc1ccc2c(c1)-c1c(ssc1=S)C(C)(C)N2: inactive
3) C=CCNS(=O)(=O)c1ccc(N2C(=O)c3ccccc3C2=O)cc1: inactive
4) O=C(CCCSc1nc2ccccc2[nH]1)N1CCN(c2ccccc2)CC1: inactive
5) Cc1ccc(C(=O)N/C(=C\c2cccs2)c2nc3ccccc3[nH]2)cc1: inactive
6) CN(C)CCOC(=O)Cc1ccc(Cl)cc1: inactive
7) Cc1ccc(Cl)cc1N1CCN(C(=O)Cc2c(C(=O)O)[nH]c3ccc(Cl)cc23)CC1: inactive
8) Cc1c(O)ccc(/C(Cc2ccc3ccccc3n2)=N\N)c1O: inactive
9) Cc1ccc(C(C)NC(=S)NCc2ccc(F)cc2)cc1C (stereo not drawn): inactive
10) CCc1ccc(N/C(=N/c2nc(C)cc(C)n2)NC(C)=O)cc1: inactive
11) CCCCNS(=O)(=O)c1ccc(NC(=O)c2c(-c3ccccc3Cl)noc2C)cc1: inactive
12) Cc1ccccc1-n1nnnc1Sc1nnnn1-c1ccccc1: inactive
13) O=C(NN1C(=O)/C(=C/c2cccc(O)c2)SC1=S)c1ccccc1O: inactive
14) O=C(CCC(=O)N1CCN(c2ccccc2F)CC1)N1CCN(c2ccc(F)cc2)CC1: inactive
15) O=C(O)c1ccc(N2C(=O)CSC2=S)cc1: inactive
16) COc1ccc(OCC(=O)NC(=S)Nc2ccccc2F)cc1: inactive
17) O=C(OCc1nc2ccsc2c(=O)[nH]1)c1cc(Br)c(Br)s1: inactive
18) COc1ccccc1NS(=O)(=O)c1ccc(O)c(C(=O)OCC(=O)c2ccc(Cl)cc2Cl)c1: inactive
19) CCCCCNC(=O)c1ccc2c(=O)[nH]c3c(C(=O)NCC4CCCO4)sc(=S)n3c2c1 (stereo not drawn): inactive
20) O=[N+]([O-])c1cc(-c2ncccn2)c([N+](=O)[O-])s1: inactive
21) Cc1n[nH]c(=O)c2c(NC(=O)CSc3nc4ccccc4c(=O)n3C(C)C)oc(C)c12: inactive
22) CCCNC(=O)N1CCCC(C(=O)c2cccc(Cl)c2)C1 (stereo not drawn): inactive
23) Cc1ccc2nc(Nc3ccccc3)cc(C)c2c1: inactive

====

Target: High affinity choline transporter 1 (Homo sapiens) (UniProt Q9GZV3)
Sequence (Q9GZV3 whole entry, looked up): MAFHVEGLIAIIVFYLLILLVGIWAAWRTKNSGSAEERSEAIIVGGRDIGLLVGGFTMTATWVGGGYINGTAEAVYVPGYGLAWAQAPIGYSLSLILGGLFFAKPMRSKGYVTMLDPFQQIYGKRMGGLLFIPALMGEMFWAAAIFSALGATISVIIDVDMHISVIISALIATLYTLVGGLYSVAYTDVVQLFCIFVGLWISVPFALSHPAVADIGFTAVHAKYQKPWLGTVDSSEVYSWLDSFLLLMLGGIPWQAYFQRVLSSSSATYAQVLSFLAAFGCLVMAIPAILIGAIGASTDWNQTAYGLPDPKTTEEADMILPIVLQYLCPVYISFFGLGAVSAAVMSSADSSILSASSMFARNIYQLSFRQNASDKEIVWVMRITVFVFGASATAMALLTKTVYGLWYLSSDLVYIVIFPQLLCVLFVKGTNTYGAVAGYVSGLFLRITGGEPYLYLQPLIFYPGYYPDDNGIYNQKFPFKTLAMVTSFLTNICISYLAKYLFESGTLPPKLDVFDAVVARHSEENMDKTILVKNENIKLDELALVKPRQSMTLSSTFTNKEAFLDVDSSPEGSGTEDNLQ
Test: human choline transporter blockers, potency – cell-based, 5-point CRC, membrane potential dye, dose response (AID 504840)
Conditions: HEK293-CHT, choline-induced depolarization, CHT with LV-to-AA double alanine mutation; series mostly up to 37 µM
The whole screen tested about 1,500 compounds, of which about 890 (59%) were called active. The set was probably picked from earlier hits. A selection follows. Potency and affinity values are given separately.
reported_property: outcome

1) O=C(NCc1nc(-c2ccccc2)cs1)c1ccccc1: inactive
2) Cc1ccccc1C(=O)OC(C)CN1CCN(C)CC1 (stereo unspecified): inactive
3) CCOC(=O)C(C)Sc1nnc(NC(=O)c2cccc([N+](=O)[O-])c2C)s1 (stereo unspecified): inactive
4) CC[C@H](C)[C@H](NC(=O)c1ccc(Cl)cc1)C(=O)OCC(=O)c1ccc2c(c1)NC(=O)CO2: inactive
5) O=C(NNc1nc(-c2ccccc2)cs1)c1ccc(F)cc1: inactive
6) O=C(N/N=C/c1cn[nH]c1-c1ccc(Cl)cc1)c1ccc([N+](=O)[O-])cc1: inactive
